target: biotinylated β-TrCP1-avi tag/Skp1 complex (UniProt Q9Y297); assay: FRET or BRET; TR-FRET, no compound: BODIPY-FL β-catenin peptide titrated against 300 pM biotinylated β-TrCP/Skp1 on 1.2 nM terbium-streptavidin; PBS, 0.01% Triton X-100, 2 mM DTT, 2% DMSO; 1 h
parameter.measured: Kd

Reported Kd, substance BODIPY-FL-labeled S33E/S37A phosphomimetic β-catenin peptide (residues 17-48) (from UniProt P35222 17-48) : ____
> 5 µM

###

Reported EC50 values follow for various compounds
Biological target: S33E/S37A β-catenin peptide binding to β-TrCP (Homo sapiens, UniProt P35222+Q9Y297, S33E/S37A)
Construct: titrating BODIPY-FL-labeled β-catenin peptides (residues 17-48) against 300 pM β-TrCP; 6xHis-SMT3 (N, cleaved yes)
Sequence (Q9Y297 1-569 isoform Q9Y297-2, stated change not applied): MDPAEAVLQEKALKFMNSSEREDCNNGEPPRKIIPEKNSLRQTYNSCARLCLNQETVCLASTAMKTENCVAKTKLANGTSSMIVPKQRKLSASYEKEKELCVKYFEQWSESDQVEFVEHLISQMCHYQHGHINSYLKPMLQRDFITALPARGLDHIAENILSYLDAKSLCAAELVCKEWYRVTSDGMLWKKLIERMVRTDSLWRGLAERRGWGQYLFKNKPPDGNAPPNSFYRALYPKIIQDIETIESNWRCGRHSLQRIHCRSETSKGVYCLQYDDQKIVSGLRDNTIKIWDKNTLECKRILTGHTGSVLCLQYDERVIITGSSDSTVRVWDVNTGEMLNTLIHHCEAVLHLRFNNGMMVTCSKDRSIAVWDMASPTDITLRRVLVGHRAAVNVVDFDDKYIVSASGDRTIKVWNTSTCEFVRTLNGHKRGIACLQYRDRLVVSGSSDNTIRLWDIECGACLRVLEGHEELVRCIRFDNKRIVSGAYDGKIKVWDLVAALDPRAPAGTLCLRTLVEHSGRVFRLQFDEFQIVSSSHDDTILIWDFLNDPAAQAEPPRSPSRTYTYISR
Sequence (P63208 whole entry partner, the tested form may be a part): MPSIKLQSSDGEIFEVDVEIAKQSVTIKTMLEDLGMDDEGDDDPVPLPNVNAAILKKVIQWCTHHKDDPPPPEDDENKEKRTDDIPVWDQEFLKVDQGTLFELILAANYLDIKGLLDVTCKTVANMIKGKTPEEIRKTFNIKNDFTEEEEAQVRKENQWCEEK
Sequence (P35222 17-48 S33E/S37A limits assumed): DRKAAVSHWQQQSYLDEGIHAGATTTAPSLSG
Assay: TR-FRET binding enhancement assay, S33E/S37A peptide
Details: 1% binding saturation
Experimental: Compounds were incubated in a 20 μl reaction volume with 300 pM biotinylated β-TrCP/Skp1 preincubated with 1.2 nM terbium-coupled streptavidin (Cisbio) and BODIPY-FL labeled β-catenin peptides (see figure legends for peptide details) in a white 384-well microplate (Perkin Elmer ProxiPlate), using a PBS buffer containing 0.01% Triton X-100 and 2 mM DTT with 2% final DMSO. […] TR-FRET signal was calculated using a 520/620 nm ratio. […]
# do not omit the unit; it follows the number

O=C(O)c1cccc(NC(=O)c2c(Sc3c(Cl)cccc3Cl)cc(C(F)(F)F)[nH]c2=O)c1; 3.9 µM
N#Cc1cccc2c1CN(C(=O)c1c(Sc3c(Cl)cccc3Cl)cc(C(F)(F)F)[nH]c1=O)C2; 1.1 µM

We now examine a further compound.
// query EC50 value for entry CN(C)C(=O)c1cccc(NC(=O)c2c(Sc3c(Cl)cccc3Cl)cc(C(F)(F)F)[nH]c2=O)c1
6.7 µM

Data provenance is paper PMC6441019.
